# studySystem: soluble IGF-1R (UniProt P08069)
# methodNotes: phage ELISA; A405 on IGF-1R / A405 on non-fat milk
No end group written: not given here.
measurementLabel: ratio over background (fold over background)

Example entries begin here.
1. DYKDAGSVTSFYDAMEQLVATGTSAAAAGAP (peptide, not shown: large carriers) [20E2A-3-A4-IGFR]    2.5
2. DYKDRCGDEEGWQENRRDDPFYHKLSELFGGCAAAGAP (peptide, not shown: large carriers) [B6Hα-3-E5-IR]    2.9
3. DYKDCGAKMTGTPNDPFYHKLSELLQRGAAAGAP (peptide, not shown: large carriers) [B6Hα-3-E6-IR]    2.3
4. DYKDGCITAENGAGDPFYHKLSELGGCSAAAGAP (peptide, not shown: large carriers) [B6Hα-1-B3-IR]    3.2
5. DYKDQSGSGDFYDWLSRLIRGNGDGAAAGAP (peptide, not shown: large carriers) [20E2Bβ-3-C7-IR]    3.1
6. DYKDAGTPAQVGXNRLWSVWPGEHWNTVDPFYNKLSELLRESGAAAAGAP (peptide, not shown: large carriers, not fully specified; X: residue not identified in the source) [B6L-4-A7-IR]    3.4
7. DYKDVDTPAQVGWNRLWSVGPGEHWYTDDPFYHXLSELLRESGAAAAGAP (peptide, not shown: large carriers, not fully specified; X: residue not identified in the source) [B6L-3-G6-IR]    2.5
8. DYKDGHYFGSFYDAIDQLVAGMLPGAAAGAP (peptide, not shown: large carriers) [20E2A-3-A3-IGFR]    3
9. DYKDCSMAAVAEAGDDDDPFYHKLSELCQGSAAAGAP (peptide, not shown: large carriers) [B6Hα-3-F1-IR]    2.4
10. DYKDMNVFVSFYDAIDQLVCQRIGCAAAGAP (peptide, not shown: large carriers) [20E2A-4-G11-IGFR]    3.3

[P] DYKDSSETAKMVTGTRDDPFYHKLSELVQGSAAAGAP (peptide, not shown: large carriers) [B6Hα-2-D8-IR]
[Q] DYKDLSCLAYSRHGIWRPSTDLGLGRSVGEGSVSTRWRGYDWFEAAAGAP (peptide, not shown: large carriers) [40F-4-D1-IGFR]
Req: Smaller ratio over background (fold over background) value, P vs Q ? Selection: enter the item's label.
Resp: P

FYI, the data here is from patent US6875741.
